Examples of sequences with documented apparent KD of K4 kissing-loop reporter follow.
Tested on: K4 kissing-loop RNA reporter;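 note: bound reporter read as fluorescence of individual clusters on recovered sequencing chips by microscopy, with normalized cluster intensities fitted with a binding model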
Assay: apparent KD of K4 kissing-loop reporter; higher = weaker reporter binding
Settings: Eterna round: R107; input ligand: arginine 13.2 mM
measured.parameter: apparent KD of K4 kissing-loop reporter (nM)

monomer.sequence: AGUACAAUGGCGGCCGCCACUCAACGCAGAUCAAAGAUCUGCGUUCACUCAGUGAUGUUGAGUGAGAGGACCGGGCCUUUGUACA [Omei KL Tryp B SS B v5]
readout.unit: nM
number: 180
--
monomer.sequence: UAUUAAUUGUCAGGAUAUCGUAUUCGAGUGAUGUUCGUAUAUCGACGAUAGUCGAUUCUAUCUAUACGAGAAGGGACAUUAUUUA [JR_SSFMNB_Sub007]
readout.unit: nM
number: 711
--
monomer.sequence: AGUGCUAUGACGGCCGCCACUGAUUACCAGUGAUGUUGGUAGUCCAUUUACGACUUCCUGAUAACCAGGACCGGGUCAUAGGUCG [Tryp B Ex t2]
readout.unit: nM
number: 613
--
monomer.sequence: AGCCACGACGCGGCCGCCACUGCCAUUAAACGUAAGGCAAAUCUAAUCUUCGAGUGAUGUUCGGGCAGGACCGGGCGGAGACUUG [theeternabot_sameState_KL_Trp_B_18]
readout.unit: nM
number: 300
--
monomer.sequence: UUAUCAUCAGCGGCCGCCACUGCAAAUUGGAGUGAUGUUCCAAGCGUGGAUAAUGAAAUCACUAGUAGGACCGGGUUGAUGAAUU [AK 1 Ex Trypt B]
readout.unit: nM
number: 231
--
monomer.sequence: AAGAGGUAGGCGGCCGCCACUUGUUGUGAACACAUACGAGCCAGUGAUGUUGGUAUUGUGGGCGGAAGGACCGGGCCUACCUGAA [Exclusion - Tryptophan B (Freestyle 20)]
readout.unit: nM
number: 304
--
monomer.sequence: AAAUCGUUCAGAAGGAGCGUGAAUUAUUCUUAAUUAUAUUAUACGAGUGAUGUUCGUGUUUCACAGGUAGGUCGCUGAUCGAUAA [JR_SSArginiB_Sub005]
readout.unit: nM
number: 126
--
monomer.sequence: GUAGCACUUGACAGUGAUGUUGUCAAGGGCAAGGAUAUCACCUCAGUGAGAAGGUGUCCUUGAUAACUGCUACGGGAAUAUCCCA [Omei KL FMN A Exc D v7]
readout.unit: nM
number: 136
--
monomer.sequence: GGAGCCGAUAGUGAUACCAGCCAGUGAUGUUGGCGAAGUCUCAUUUUCGCUCUCGGUAAGGGCCCUUGGCAGCACUUACUCGGAA [Arledied]
readout.unit: nM
number: 94
--
monomer.sequence: UUUAACGAGUGAUGUUCGAAAAGUAAUAGUUAGGAUAUCGUUUUUUCGAGAAGGAACUUCGAAGUGAUACGAAAGUAUCGCUUCG [FMN A 1]
readout.unit: nM
number: 359
--
monomer.sequence: GGUAGCAUGGCGGCCGCCACUAUUACUGGAUCGGAAACGAUCCAGUAUUUAUGAGUGAUGUUCAUUAGGACCGGGCCAUGCUACC
readout.unit: nM
number: 301
--
monomer.sequence: CGCUGGGCGAGUGAUGUUCGCUCACGUGAUACCAGUGCAAUCCAACACCCUUGGCAGCACGCGGGCAGUGAUGUUGUCCUUAGUG [Exclusion Theophylline A GF12]
readout.unit: nM
number: 149

These measurements were taken from the supplement of paper PMC9170038.
